measured on: UniProtKB P09382
Sequence (P09382 whole entry): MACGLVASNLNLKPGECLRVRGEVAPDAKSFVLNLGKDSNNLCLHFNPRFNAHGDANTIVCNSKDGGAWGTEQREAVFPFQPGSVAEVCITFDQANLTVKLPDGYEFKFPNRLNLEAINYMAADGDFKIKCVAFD
assay name: Fluorescence anisotropy assay, inhibition of galectin / fluorescein tagged saccharide probe interaction
Protocol: The affinity of Example 1-28 for galectins were determined by a fluorescence anisotropy assay where the compound was used as an inhibitor of the interaction between galectin and a fluorescein tagged saccharide probe as described Sörme, P., Kahl-Knutsson, B., Huflejt, M., Nilsson, U. J., and Leffler H. (2004) Fluorescence polarization as an analytical tool to evaluate galectin-ligand interactions. […]
What pKd was measured for each of the following?
Remember the convention: pKd equals -log10 of concentration in molar.

Item: O=P(O)(O)O[C@@H]1[C@@H](n2cc(-c3cc(F)c(F)c(F)c3)nn2)[C@@H](O)[C@@H](CO)O[C@@H]1Sc1cncc(Br)c1 | System: UniProtKB P09382 | pKd: 5.27

Item: Cn1ccnc1CO[C@@H]1[C@@H](n2cc(-c3cc(F)c(F)c(F)c3)nn2)[C@@H](O)[C@@H](CO)O[C@@H]1Sc1cncc(Br)c1 | System: UniProtKB P09382 | pKd: 5.19

Item: OC[C@H]1O[C@H](Sc2cncc(Br)c2)[C@H](OCc2ncc[nH]2)[C@@H](n2cc(-c3cc(F)c(F)c(F)c3)nn2)[C@H]1O | System: UniProtKB P09382 | pKd: 5.02

Item: CN(C)C(=O)c1ccc(Cl)cc1S[C@H]1OC(CO)[C@H](O)C(n2cc(-c3cc(F)c(F)c(F)c3)nn2)C1OCc1cscn1 (stereo partly drawn) | System: UniProtKB P09382 | pKd: 5.43

Item: OCC1O[C@H](Sc2ccc(Cl)c(Cl)c2)C(OCc2nnn[nH]2)C(n2cc(-c3cc(F)c(F)c(F)c3)nn2)[C@H]1O (stereo in doubt) | System: UniProtKB P09382 | pKd: 5.74

Item: O=C(O)CCCO[C@@H]1[C@@H](n2cc(-c3cc(F)c(F)c(F)c3)nn2)[C@@H](O)[C@@H](CO)O[C@@H]1Sc1cncc(Br)c1 | System: UniProtKB P09382 | pKd: 5.82

Item: CS(=O)(=O)NC(=O)COC1C(n2cc(-c3cc(F)c(Cl)c(F)c3)nn2)[C@@H](O)C(CO)O[C@@H]1Sc1ccc(Cl)c(Cl)c1 (stereo in doubt) | System: UniProtKB P09382 | pKd: 5.52

Item: OC[C@H]1O[C@H](Sc2cncc(Br)c2)[C@H](OCc2cocn2)[C@@H](n2cc(-c3cc(F)c(F)c(F)c3)nn2)[C@H]1O | System: UniProtKB P09382 | pKd: 5.04

Item: O=C(O)CO[C@@H]1[C@@H](n2cc(-c3cc(F)c(Cl)c(F)c3)nn2)[C@@H](O)[C@@H](CO)O[C@@H]1Sc1ccc(Cl)c(Cl)c1 | System: UniProtKB P09382 | pKd: 5.70

Item: OC[C@H]1O[C@H](Sc2cncc(Br)c2)[C@H](OCc2nnn[nH]2)[C@@H](n2cc(-c3cc(F)c(F)c(F)c3)nn2)[C@H]1O | System: UniProtKB P09382 | pKd: 5.62

Item: O=P(O)(O)OCO[C@@H]1[C@@H](n2cc(-c3cc(F)c(F)c(F)c3)nn2)[C@@H](O)[C@@H](CO)O[C@@H]1Sc1cncc(Br)c1 | System: UniProtKB P09382 | pKd: 5.42

Item: CN(C)C(=O)c1ccc(Cl)cc1S[C@H]1OC(CO)[C@H](O)C(n2cc(-c3cc(F)c(F)c(F)c3)nn2)C1OCc1nnn[nH]1 (stereo partly drawn) | System: UniProtKB P09382 | pKd: 5.92
